biological target: DR4w4 (DRB1*0401) (Homo sapiens, UniProt P01903+P01911, A100K/A169T/F76Y/I96L/K127E/L162R/M171V/N62H/P40V/Q125Y/R42H/S133A/S149N/S66Y/V115G/V209L/W38E); experiment: biochemical; assay type: binding
No end group written: not given here.
Reported log10(IC50) values are given for each entry in this list.
parameterMeasured: log10(IC50) (log10 of the value in nM)

{"sequenceCode": "STSDDTVSATQIVRQ [Peptide 1601.31]", "log10(IC50)": 2.75}
{"sequenceCode": "CMLIQPPKLRSTAAA [Peptide 89.0047]", "log10(IC50)": 3.38}
{"sequenceCode": "IIHLKGDKNSLKCLR [Peptide 90.0218]", "log10(IC50)": 2.54}
{"sequenceCode": "ITHIGHQVVPPMAVS [Peptide 90.0010]", "log10(IC50)": 2.37}
{"sequenceCode": "PMCMMIEPPKLRSTA [Peptide 90.0034]", "log10(IC50)": 2.56}
{"sequenceCode": "GHQVVPPMAVSKAKA [Peptide 90.0011]", "log10(IC50)": 2.65}
{"sequenceCode": "RDSVDSAPILTAFNS [Peptide 89.0156]", "log10(IC50)": 1.30}
{"sequenceCode": "FQVIELQMALETLNA [Peptide 90.0025]", "log10(IC50)": 1.88}
{"sequenceCode": "EIYIIEEDTCTMVTG [Peptide 90.0203]", "log10(IC50)": 2.41}
{"sequenceCode": "LKRFLQGIPKKNCIL [Peptide 89.0016]", "log10(IC50)": 2.97}
{"sequenceCode": "EVHVGGQVIVCPASV [Peptide 90.0015]", "log10(IC50)": 3.32}
{"sequenceCode": "RLNVCQDKILTHYEN [Peptide 90.0160]", "log10(IC50)": 0.54}
{"sequenceCode": "LCVNSTASDLRTIQQ [Peptide 1543.15]", "log10(IC50)": 1.80}
{"sequenceCode": "FKYFKEDAAKYSKTQ [Peptide 90.0206]", "log10(IC50)": 1.28}
{"sequenceCode": "LLQLKCPPILLTSNI [Peptide 89.0091]", "log10(IC50)": 3.16}
{"sequenceCode": "LKSFLKGTPKKNCLV [Peptide 89.0035]", "log10(IC50)": 2.51}
{"sequenceCode": "ALSVSKAKALQAIEL [Peptide 89.0170]", "log10(IC50)": 2.45}
{"sequenceCode": "KHIRLLECVLMYKARE [Peptide 1601.44]", "log10(IC50)": 1.83}
{"sequenceCode": "EVQIALESLSTTIYN [Peptide 90.0231]", "log10(IC50)": 3.11}
{"sequenceCode": "LVQLKCPPLLITSNI [Peptide 89.0021]", "log10(IC50)": 3.63}
{"sequenceCode": "HKAIELQMALKGLAQ [Peptide 90.0004]", "log10(IC50)": 0.83}
{"sequenceCode": "QYIKANSSFIGITE", "log10(IC50)": 1.11}
{"sequenceCode": "DSQIAFQYAQLADVD [Peptide 89.0130]", "log10(IC50)": 3.48}

###

molecular target: B*5401 (Homo sapiens, UniProt P01889, A329T/C349S/D138N/D201E/E176V/E187T/E204Q/E69G/I76V/K202T/L119W/R155S/R180L/S121T/S35A/S48A/V127L/V306I/V36M/Y140L); experiment: biochemical
No end group written: not given here.
sequences and their reported log10 IC50
parameterMeasured: log10 IC50 (log10 of the value in µM)

{"sequenceCode": "VPHPNIEEVA [16.189]", "log10 IC50": -1.44}
{"sequenceCode": "IPFPSSWAF", "log10 IC50": -0.08}
{"sequenceCode": "NPYNTPVFAI [15.255]", "log10 IC50": 0.82}
{"sequenceCode": "IPIPMSWAF", "log10 IC50": -2.23}
{"sequenceCode": "EPISPIETV [15.073]", "log10 IC50": -2.01}
{"sequenceCode": "TPPLVKLWV [15.090]", "log10 IC50": 0.68}

###

IC50 for assorted sequences
target: A*2902 (Homo sapiens, UniProt P04439, A270S/D101N/D185E/E176V/E277Q/E87Q/F33T/G231S/H175R/I121M/I218V/I322F/K168Q/L300P/L318F/M331R/P208A/P217A/Q86L/T323A/T345S/V100A/V358M); test: biochemical; assay type: binding
No end group written: not given here.

{"sequenceCode": "SSDAALYWY [Peptide 1593.08]", "relationSign": "=", "IC50 (nM)": 1970}
{"sequenceCode": "YTDGPGTRY [Peptide 9018.0002]", "relationSign": "=", "IC50 (nM)": 65}
{"sequenceCode": "NTPPLVKLWY [Peptide 9015.0170]", "relationSign": "=", "IC50 (nM)": 2650}
{"sequenceCode": "TWETWWTDY [Peptide 9015.0019]", "relationSign": "=", "IC50 (nM)": 137}
{"sequenceCode": "QTRVLAIERY [Peptide 9015.0156]", "relationSign": "=", "IC50 (nM)": 4180}
{"sequenceCode": "LSEMIQWAY [Peptide 1580.17]", "relationSign": "=", "IC50 (nM)": 187}
{"sequenceCode": "RYSTQVDPGY [Peptide 9018.0039]", "relationSign": ">", "IC50 (nM)": 20000}
{"sequenceCode": "LTDQLIHLY [Peptide 9018.0026]", "relationSign": "=", "IC50 (nM)": 178}
{"sequenceCode": "VWDIVYIEY [Peptide 9018.0040]", "relationSign": "=", "IC50 (nM)": 540}
{"sequenceCode": "HYARELHPEY [Peptide 9018.0035]", "relationSign": "=", "IC50 (nM)": 928}
{"sequenceCode": "LYDQLIHMHY [Peptide 9018.0034]", "relationSign": "=", "IC50 (nM)": 123}
{"sequenceCode": "VTRRAKGWFY [Peptide 9018.0013]", "relationSign": "=", "IC50 (nM)": 21}
{"sequenceCode": "VTRRANGWFY [Peptide 9018.0011]", "relationSign": "=", "IC50 (nM)": 905}

###

molecular target: A*2601 (Homo sapiens, UniProt P04439, A114D/A173T/A270S/D101N/D185E/E277Q/E87N/F33Y/G231S/I121R/I218V/K168Q/L180W/L300P/L318F/P208A/P217A/Q86R/Q94H/R138Q/S129P/T187R/T323A/T345S/V100A/V358M); experiment: biochemical; assay type: binding
No end group written: not given here.
Some sequences, each annotated with its measured IC50.

{"sequenceCode": "MSMSQWIKY [Peptide 1580.05]", "IC50": "158 nM"}
{"sequenceCode": "SIDWRLRRY [Peptide 9018.0020]", "IC50": "624 nM"}
{"sequenceCode": "VSIEWRQRRY [Peptide 9015.0182]", "IC50": "1990 nM"}
{"sequenceCode": "LSEMVQWAY [Peptide 1580.10]", "IC50": "> 20000 nM"}
{"sequenceCode": "TWETWWTDY [Peptide 9015.0019]", "IC50": "3300 nM"}
{"sequenceCode": "QTRVLAIERY [Peptide 9015.0156]", "IC50": "3310 nM"}
{"sequenceCode": "LSDLQDSGY [Peptide 1580.15]", "IC50": "> 20000 nM"}

###

Entries annotated with measured pIC50
biological target: DR1 (DRB1*0101) (Homo sapiens, UniProt P01903+P01911, A100R/D57E/F55L/F60I/F76Y/I96L/L162R/M171V/P40L/Q125E/R42F/V115G/Y59C); assay: biochemical; assay type: binding
pIC50: −log10 of the molar value.
parameterMeasured: pIC50

{"compound": "CC(C)C[C@H](NC(=O)[C@H](CC(C)C)NC(=O)[C@@H]1CCCN1C(=O)[C@@H](N)CC(N)=O)C(=O)NCC(=O)N[C@@H](C)C(=O)N[C@@H](C)C(=O)N[C@H](C(=O)N1CCC[C@H]1C(=O)N[C@H](C(=O)NCC(=O)N[C@@H](CC(N)=O)C(=O)N[C@@H](CC(N)=O)C(=O)N[C@@H](CCCCN)C(=O)N[C@@H](CCCNC(=N)N)C(=O)O)[C@@H](C)O)[C@@H](C)O [Peptide 89.0165]", "parameterMeasured": "pIC50", "dataValue": 6.18}
{"compound": "CC[C@H](C)[C@H](NC(=O)CNC(=O)[C@@H](NC(=O)[C@H](CCCCN)NC(=O)[C@H](Cc1ccc(O)cc1)NC(=O)[C@H](Cc1c[nH]c2ccccc12)NC(=O)[C@H](Cc1ccc(O)cc1)NC(=O)[C@@H](N)CC(C)C)[C@@H](C)O)C(=O)N[C@@H](CO)C(=O)N[C@@H](CC(N)=O)C(=O)N[C@H](C(=O)N[C@@H](CO)C(=O)N[C@@H](CCC(=O)O)C(=O)N[C@H](C(=O)N[C@@H](Cc1ccc(O)cc1)C(=O)O)C(C)C)[C@@H](C)CC [Peptide 89.0009]", "parameterMeasured": "pIC50", "dataValue": 7.39}
